- TARGET ENTITY: T1, IL-18 binding protein (IL-18BP) (UniProt O95998 31-194); note: unit not given here
- T1 sequence (looked up): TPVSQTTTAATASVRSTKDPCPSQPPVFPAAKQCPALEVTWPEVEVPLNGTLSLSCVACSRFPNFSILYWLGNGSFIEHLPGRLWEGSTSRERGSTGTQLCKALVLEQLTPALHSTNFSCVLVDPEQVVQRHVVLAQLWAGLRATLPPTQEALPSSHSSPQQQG
- METHOD SUMMARY: cell-based or functional assay
Listing: Activity, +100 nM BP, DF-5000003 of selected binders
Enter a number only.

Worked set:
| BINDER | Activity, +100 nM BP, DF-5000003 |
| --- | --- |
| IL-18 variant G3Y, E6S, K53S, D54W, S55L, T63S, N91I (ligand) YFYKLSSKLSVIRNLNDQVLFIDQGNRPLFEDMTDSDMRDNAPRTIFIISMYSWLQPRGMAVSISVKSEKISTLSSENKIISFKEMNPPDIIKDTKSDIIFFQRSVPGHDNKMQFESSSYEGYFLASEKERDLFKLILKKEDELGDRSIMFTVQNED | 0.23 |
| IL-18 variant G3L, E6Q, T63S, N91L, R104P (ligand) YFLKLQSKLSVIRNLNDQVLFIDQGNRPLFEDMTDSDMRDNAPRTIFIISMYKDSQPRGMAVSISVKSEKISTLSSENKIISFKEMNPPDLIKDTKSDIIFFQPSVPGHDNKMQFESSSYEGYFLASEKERDLFKLILKKEDELGDRSIMFTVQNED | 0.08 |
| IL-18 variant G3Y, E6S, K53S, D54W, S55L, N91I (ligand) YFYKLSSKLSVIRNLNDQVLFIDQGNRPLFEDMTDSDMRDNAPRTIFIISMYSWLQPRGMAVTISVKSEKISTLSSENKIISFKEMNPPDIIKDTKSDIIFFQRSVPGHDNKMQFESSSYEGYFLASEKERDLFKLILKKEDELGDRSIMFTVQNED | 0.26 |
| IL-18 variant G3Q, E6Q, K53T, D54W, S55F, N91Y (ligand) YFQKLQSKLSVIRNLNDQVLFIDQGNRPLFEDMTDSDMRDNAPRTIFIISMYTWFQPRGMAVTISVKSEKISTLSSENKIISFKEMNPPDYIKDTKSDIIFFQRSVPGHDNKMQFESSSYEGYFLASEKERDLFKLILKKEDELGDRSIMFTVQNED | 0.45 |
| IL-18 variant G3P, E6G, D54T, S55W, N91E, R104K (ligand) YFPKLGSKLSVIRNLNDQVLFIDQGNRPLFEDMTDSDMRDNAPRTIFIISMYKTWQPRGMAVTISVKSEKISTLSSENKIISFKEMNPPDEIKDTKSDIIFFQKSVPGHDNKMQFESSSYEGYFLASEKERDLFKLILKKEDELGDRSIMFTVQNED | 0.12 |
| IL-18 variant G3H, E6Q, K53N, D54S, S55P, T63A, N91I, R104S (ligand) YFHKLQSKLSVIRNLNDQVLFIDQGNRPLFEDMTDSDMRDNAPRTIFIISMYNSPQPRGMAVAISVKSEKISTLSSENKIISFKEMNPPDIIKDTKSDIIFFQSSVPGHDNKMQFESSSYEGYFLASEKERDLFKLILKKEDELGDRSIMFTVQNED | 0.12 |

Now for the binder whose Activity, +100 nM BP, DF-5000003 we want.
Q) Return the recorded Activity, +100 nM BP, DF-5000003 value; entry: IL-18 variant G3P, E6K, K53M, D54W, S55N, T63S, N91I (ligand) YFPKLKSKLSVIRNLNDQVLFIDQGNRPLFEDMTDSDMRDNAPRTIFIISMYMWNQPRGMAVSISVKSEKISTLSSENKIISFKEMNPPDIIKDTKSDIIFFQRSVPGHDNKMQFESSSYEGYFLASEKERDLFKLILKKEDELGDRSIMFTVQNED
A) 0.2
